Origin of measurements: PubChem BioAssay

Test system: Fibrinogen (Alexa647-labelled)
Assay: fibrinogen binders on compound microarrays, profiling panel, artefact control for SMM control-protein annotation, biochemical, small-molecule microarray, 635/667 nm fluorescence (AID 1131);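 further: z-score merges 667 nm fluorescence with per-spot signal-to-noise over triplicate slides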
Details: fibrinogen-A647 binding fluorescence, higher = more signal
composite z-score overview
Measurement Label: composite z-score

# Molecule, Meas Value
measured = [
    ("COc1ccc(C(O)C2C=CC3C(=O)N(c4ccccc4)C(=O)C3N2Nc2ccc([N+](=O)[O-])cc2)cc1 (centres undefined)", 1.01),
    ("COC(=O)[C@@]1(Cc2ccc(OC)cc2)[C@H]2c3cc(C(=O)N4CCCC4)n(Cc4cccc5ccccc45)c3C[C@H]2CN1C(=O)c1ccccc1", 0.704),
    ("CCOC(=O)c1ccc(NC(=O)O[C@H]2[C@H](OC(=O)Nc3ccc4c(c3)OCO4)[C@H](OC(=O)Nc3ccc4c(c3)OCO4)[C@@H](OC)O[C@@H]2CO)cc1", 1.01),
    ("Cc1ccccc1C(O)C1C=CC2C(=O)N(C)C(=O)C2N1N(c1ccccc1)c1ccccc1 (centres undefined)", 0.354),
    ("COC(=O)[C@@]1(Cc2ccccc2)[C@H]2c3cc(C(=O)N(C)C)n(CCc4ccc(O)c(OC)c4)c3C[C@H]2CN1C(=O)c1ccccc1", 0.814),
    ("CC(=O)NCCCC[C@@H]1NC(=O)[C@H]2C[C@@H](C(=O)NCCCC[N+](C)(C)C)[C@@H](c3cccc(OCCO)c3)N2C1=O", 0.231),
    ("C=C(COC)/C(=C/C[C@H](OC(C)=O)c1ccc(OCCO)cc1)c1cc(C(=O)OC)ccc1OC", 0.436),
    ("CCOC(=O)C[C@H]1[C@H](OC(=O)Cc2ccc3c(c2)OCO3)[C@@H](NC(=O)Cc2ccc(OC)cc2)c2cc(OCCCO)ccc2N1C(=O)c1ccc2ccccc2n1", 0.172),
    ("C[C@]1(C(=O)NC2CC2)c2ccccc2C(=O)N(Cc2ccccc2)[C@H]1c1ccc(CO)cc1", -2.17),
    ("COC(=O)[C@@]1(Cc2ccc(OC)cc2)[C@H]2c3cc(C(=O)N(C)C)n(C[C@H](O)CO)c3C[C@H]2CN1C(=O)c1ccccc1", 0.904),
    ("COc1cccc(/C=C/C=O)c1", -1.77),
    ("O=C(N1CCCCC1)[C@@]1(CCS(=O)(=O)c2ccccc2)COC(c2ccc(OCCCO)cc2)=N1", 0.839),
    ("O=C1O[C@H](c2ccccc2)[C@H](c2ccccc2)N2[C@H]1[C@@H](C(=O)NC[C@H](O)c1ccccc1)[C@]1(C(=O)Nc3ccc(C#CCCO)cc31)[C@H]2c1ccc(OCCO)cc1", 0.738),
    ("C=CCNC(=O)[C@H]1[C@@H]2C(=O)O[C@@H](c3ccccc3)[C@@H](c3ccccc3)N2[C@@H](c2ccc(O)cc2)[C@]12C(=O)Nc1ccc(C#CC3(O)CCCCCC3)cc12", 0.481),
]

* * *

z-score overview
Experiment: basal 3T3-L1 adipocyte mitochondrial potential changes, profiling panel, cell-based, JC-1 fluorescence, 3T3-L1 adipocytes, 24 h, 100 nL compound (AID 1168); further: test concentration not given here
Details: JC-1 mitochondrial fluorescence, higher = more signal, called active from +8 up or from −8 down
The source made the active and inactive calls.

# Molecule, z-score
data = [
    ("NC(N)=NCCCn1cc(CNC(=O)[C@@H](N)Cc2ccccc2)nn1", "-0.283 (inactive)"),
    ("Cn1cccc1C(O)C1C=CC2C(=O)NC(=O)C2N1Nc1ccc(Cl)cc1Cl (centres undefined)", "-1.36 (inactive)"),
    ("O=C1C2C=CC(C(O)c3ccc(F)cc3)N(n3cnnc3)C2C(=O)N1Cc1ccccc1 (centres undefined)", "-0.633 (inactive)"),
    ("COCCOC(=O)N1C(=O)[C@@]2(c3cc(C#CCCO)ccc31)[C@H](c1ccccc1OCCO)N1[C@H](c3ccccc3)[C@H](c3ccccc3)OC(=O)[C@H]1[C@@H]2C(=O)Nc1nc2ccccc2s1", "-0.192 (inactive)"),
]
